Values compiled from patent US20260092093A1.

Can you tell me % of fluorescence positive cells for the items I'm about to list?
EXPERIMENTAL SYSTEM: T1, recombinant hIL-18Rα extracellular domain (human, UniProt Q13478 22-329, biotin label (selection) or fluorescent probe (single-clone FACS), sites not given)
T1 construct: extracellular domain; also called hIL-18Rα ECD; hIL-18Rα-ECD
T1 sequence (looked up): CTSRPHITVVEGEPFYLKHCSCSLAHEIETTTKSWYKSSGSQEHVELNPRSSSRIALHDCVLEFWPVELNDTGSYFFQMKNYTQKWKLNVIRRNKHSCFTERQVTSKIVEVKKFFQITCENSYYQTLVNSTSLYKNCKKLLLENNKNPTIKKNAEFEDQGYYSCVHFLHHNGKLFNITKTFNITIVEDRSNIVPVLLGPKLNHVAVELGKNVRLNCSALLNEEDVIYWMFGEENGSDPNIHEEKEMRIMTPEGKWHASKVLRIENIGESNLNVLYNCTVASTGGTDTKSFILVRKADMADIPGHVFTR
MEASUREMENT NOTES: single-clone FACS, yeast display, 10 nM labelled hIL-18Rα ECD
Numbers only, in %.

>  <BINDER>
SEQ ID NO 113 (ligand) YFPKLRSKLSVIRNLNDQVLFIDQGNRPLFEDMTDSDCRDNAPRTIFIISMYKISISRGMAVTISVKCEKISTLSCENKIISFKEMNPPDNIKDTKSDIIFFQRSVPGHDNKMQFESSSYEGYFLACEKERDLFKLILKKEDELGDRSIMFTVQNED

>  <MEASURED VALUE>
0.61

$$$$
>  <BINDER>
SEQ ID NO 7 (ligand) YFPKLKSKLSVIRNLNDQVLFIDQGNRPLFEDMTDSDCRDNAPRTIFIISMYKHSTVRGMAVTISVKCEKISTLSCENKIISFKEMNPPDVIKDTKSDIIFFQRSVPGHDNKMQFESSSYEGYFLACEKERDLFKLILKKEDELGDRSIMFTVQNED

>  <MEASURED VALUE>
95.5

$$$$
>  <BINDER>
SEQ ID NO 80 (ligand) YFPKLRSKLSVIRNLNDQVLFIDQGNRPLFEDMTDSDCRDNAPRTIFIISMYKWSYPRGMAVTISVKCEKISTLSCENKIISFKEMNPPDGIKDTKSDIIFFQFSVPGHDNKMQFESSSYEGYFLACEKERDLFKLILKKEDELGDRSIMFTVQNED

>  <MEASURED VALUE>
18.6

$$$$
>  <BINDER>
SEQ ID NO 15 (ligand) YFPKLRSKLSVIRNLNDQVLFIDQGNRPLFEDMTDSDCRDNAPRTIFIISMYKSSRGRGMAVTISVKCEKISTLSCENKIISFKEMNPPDVIKDTKSDIIFFQTSVPGHDNKMQFESSSYEGYFLACEKERDLFKLILKKEDELGDRSIMFTVQNED

>  <MEASURED VALUE>
93

$$$$
>  <BINDER>
SEQ ID NO 6 (ligand) YFPKLSSKLSVIRNLNDQVLFIDQGNRPLFEDMTDSDCRDNAPRTIFIISMYKWSPWRGMAVTISVKCEKISTLSCENKIISFKEMNPPDDIKDTKSDIIFFQRSVPGHDNKMQFESSSYEGYFLACEKERDLFKLILKKEDELGDRSIMFTVQNED

>  <MEASURED VALUE>
95.5

$$$$

Give measured % of fluorescence positive cells for every item shown.
1. SEQ ID NO 34 (ligand) YFPKLKSKLSVIRNLNDQVLFIDQGNRPLFEDMTDSDCRDNAPRTIFIISMYKQSTWRGMAVTISVKCEKISTLSCENKIISFKEMNPPDCIKDTKSDIIFFQRSVPGHDNKMQFESSSYEGYFLACEKERDLFKLILKKEDELGDRSIMFTVQNED
2. SEQ ID NO 53 (ligand) YFPKLRSKLSVIRNLNDQVLFIDQGNRPLFEDMTDSDCRDNAPRTIFIISMYKLSGWRGMAVTISVKCEKISTLSCENKIISFKEMNPPDVIKDTKSDIIFFQRSVPGHDNKMQFESSSYEGYFLACEKERDLFKLILKKEDELGDRSIMFTVQNED
3. IL-18 variant polypeptide M29 (ligand) YFPKLMSKLSVIRNLNDQVLFIDQGNRPLFEDMTDSDCRDNAPRTIFIISMYKFSDRRGMAVTISVKCEKISTLSCENKIISFKEMNPPDPIKDTKSDIIFFQRSVPGHDNKMQFESSSYEGYFLACEKERDLFKLILKKEDELGDRSIMFTVQNED
4. IL-18 variant polypeptide M20 (ligand) YFPKLRSKLSVIRNLNDQVLFIDQGNRPLFEDMTDSDCRDNAPRTIFIISMYKSSRSRGMAVTISVKCEKISTLSCENKIISFKEMNPPDGIKDTKSDIIFFQSSVPGHDNKMQFESSSYEGYFLACEKERDLFKLILKKEDELGDRSIMFTVQNED
5. SEQ ID NO 107 (ligand) YFPKLTSKLSVIRNLNDQVLFIDQGNRPLFEDMTDSDCRDNAPRTIFIISMYKTSYERGMAVTISVKCEKISTLSCENKIISFKEMNPPDVIKDTKSDIIFFQRSVPGHDNKMQFESSSYEGYFLACEKERDLFKLILKKEDELGDRSIMFTVQNED
6. SEQ ID NO 48 (ligand) YFFKLKSKLSVIRNLNDQVLFIDQGNRPLFEDMTDSDCRDNAPRTIFIISMYKPSPPRGMAVTISVKCEKISTLSCENKIISFKEMNPPDTIKDTKSDIIFFQYSVPGHDNKMQFESSSYEGYFLACEKERDLFKLILKKEDELGDRSIMFTVQNED
7. SEQ ID NO 64 (ligand) YFPKLNSKLSVIRNLNDQVLFIDQGNRPLFEDMTDSDCRDNAPRTIFIISMYKVPTARGMAVTISVKCEKISTLSCENKIISFKEMNPPDAIKDTKSDIIFFQRSVPGHDNKMQFESSSYEGYFLACEKERDLFKLILKKEDELGDRSIMFTVQNED

result:
[88.6, 82.4, 0.18, 86.2, 1.23, 83.8, 70.8]

query: # get_value(readout='% of fluorescence positive cells', item= SEQ ID NO 101 (ligand) YFPKLKSKLSVIRNLNDQVLFIDQGNRPLFEDMTDSDCRDNAPRTIFIISMYKLSRTRGMAVTISVKCEKISTLSCENKIISFKEMNPPDFIKDTKSDIIFFQSSVPGHDNKMQFESSSYEGYFLACEKERDLFKLILKKEDELGDRSIMFTVQNED )
result: 1.91
